# System: SR
# assay.summary: NCI tumour cell line growth inhibition, 48 h
Active and inactive are the calls of the source. No stated cut-off is given here; in the data, active = GI50 up to about 1.1 µM and inactive = higher.
Labels: T (active), F (inactive)

# compound, answer.label
rows = [
    ("O=C1/C(=C/c2ccc(Cl)cc2)N=C(c2ccccc2)N1C1Nc2cc3c(cc2S1)NC(N1C(=O)/C(=C/c2ccc(Cl)cc2)N=C1c1ccccc1)S3 (configuration not stated)", "F"),
    ("CCc1c(Cl)nc(Cl)nc1Cl", "T"),
    ("OCC1(CNc2cc(Cl)ncn2)CCC1", "F"),
    ("Nc1ncnc2c1ncn2[C@@H]1C[C@@H]1CO", "F"),
    ("COc1cc2c(cc1OC)C1Cc3ccccc3CN1CCC2 (configuration not stated)", "F"),
    ("CCN(CC)CC1CCCCN1CC(=O)N1CC(C)C(=O)Nc2ccccc21 (configuration not stated)", "F"),
    ("NCCSS(=O)(=O)CCN", "F"),
    ("Nc1cc(S(N)(=O)=O)ccc1SSc1ccc(S(N)(=O)=O)cc1N", "F"),
    ("O/N=C1/CCCC/C1=C/C=C/c1ccccc1", "F"),
    ("COc1cccc(C2CC(C)(O)Oc3cc4c(cc32)OCO4)c1O (configuration not stated)", "F"),
    ("O=C(O)Cn1cnc2c(O)nc(Nc3ccccc3)nc21", "F"),
    ("CN(C)C(=S)/N=c1\\ss/c(=N\\C(=S)N(C)C)n1C1CCCCC1", "F"),
    ("C#C[C@]1(O)CC[C@H]2[C@@H]3CCc4cc(O)ccc4[C@H]3CC[C@@]21C", "F"),
    ("O=c1[nH]cnc2c1ncn2[C@@H]1C[C@H]1CO", "F"),
    ("Cn1cnc([N+](=O)[O-])c1[Se]c1ncnc2nc[nH]c12", "F"),
    ("COc1ccc2oc(S(=O)(=O)N3CC(CCl)c4ccc([N+](=O)[O-])cc43)cc2c1 (configuration not stated)", "T"),
    ("COc1cc(NC(C)=O)ccc1C(=O)N/N=C/c1ccc(Cl)cc1Cl", "F"),
    ("COC1(C(C)(C)C)C=C(C(C)(C)C)P(=O)(O)O1 (configuration not stated)", "F"),
    ("Fc1nc(-c2c3ccccc3c3sc4ccccc4n23)nc(N2CCOCCOCCOCCOCC2)n1", "F"),
    ("C=CCN1C(=O)/C(=C/c2ccccc2)N=C1SC1OC(COC(=O)c2ccccc2)C(OC(=O)c2ccccc2)C1OC(=O)c1ccccc1 (configuration not stated)", "F"),
    ("COc1cc([N+](=O)[O-])c(S(=O)(=O)O)cc1-n1nc(C(=O)Nc2ccccc2)n[n+]1-c1cc(S(=O)(=O)[O-])c([N+](=O)[O-])cc1OC", "F"),
    ("CC[C@@]1(O)C(=O)OCc2c1cc1n(c2=O)Cc2cc3cc(O)ccc3nc2-1 [HYDROXYCAMPTOTHECIN]", "T"),
    ("O=c1nc(N2CCN(c3ccccc3)CC2)ccn1C1OC(CO)C(O)C1O (configuration not stated)", "F"),
    ("COc1ccc(C(=O)NCCN(C)C)c2nc3ccccc3cc12", "T"),
    ("CN(C)/C=C/C(=CC=[N+](C)C)/C=C/N(C)C.[O-][Cl+3]([O-])([O-])[O-]", "F"),
    ("c1cc2ccc3cc4ncccc4c4ccc(c1)c2c34", "T"),
    ("CSC(=Nc1nnc(-c2ccc([N+](=O)[O-])cc2)s1)SC", "F"),
]

Numbers sourced from ChEMBL document CHEMBL1201862.
